Each record here notes measured inhibition at 25 µM.
Tested on: L. donovani promastigotes
Assay: In vitro L. donovani promastigotes growth inhibition (resazurin-based assay)
Format: cell-based
Details: Leishmania donovani, 72 h; growth of L. donovani promastigotes, 25 µM, incubation 3 days, relative to control
REPORTED_METRIC: inhibition at 25 µM (%)

[[record]]
compound = "CCC(=Cc1ccc(O)c(O)c1)C(=O)NC(Cc1ccccc1)C(=O)C(=O)NCc1ccccc1 (stereo not shown)"
reported_metric = "inhibition at 25 µM"
endpoint_unit = "%"
quantitative_readout = 104

[[record]]
compound = "CCCC(=Cc1ccc(O)c(O)c1)C(=O)NC(Cc1ccccc1)C(=O)C(=O)NCc1ccccc1 (stereo not shown)"
reported_metric = "inhibition at 25 µM"
endpoint_unit = "%"
quantitative_readout = 107

[[record]]
compound = "CCCC(=Cc1ccc(O)c(O)c1)C(=O)NC(Cc1ccccc1)C(=O)C(=O)NCCc1ccc(OC)cc1 (stereo not shown)"
reported_metric = "inhibition at 25 µM"
endpoint_unit = "%"
quantitative_readout = 104

[[record]]
compound = "CCCCCCCC/C=C\\CCCCCCCCCCCCOP(=O)([O-])OCC[N+](C)(C)C [Erufosine, reference compound]"
reported_metric = "inhibition at 25 µM"
endpoint_unit = "%"
quantitative_readout = 100


---

Recorded inhibition at 25 µM by entry
Test system: L. donovani promastigotes
Assay: In vitro L. donovani promastigotes growth inhibition (resazurin-based assay)
Assay type: cell-based
Details: Leishmania donovani, 72 h; growth of L. donovani promastigotes, 25 µM, incubation 3 days, relative to control
REPORTED_METRIC: inhibition at 25 µM (%)

[[record]]
compound = "CCCCC(=Cc1ccc(O)c(O)c1)C(=O)NC(Cc1ccccc1)C(=O)C(=O)NCCc1ccc(OC)cc1 (stereo not drawn) [Compound 2g]"
endpoint_unit = "%"
quantitative_readout = 107

[[record]]
compound = "O=C(C=Cc1ccc(O)c(O)c1)NC(Cc1ccccc1)C(=O)C(=O)NCc1ccccc1 (stereo not drawn) [Compound 2a]"
endpoint_unit = "%"
quantitative_readout = 97.8

[[record]]
compound = "COc1ccc(CCNC(=O)C(=O)C(Cc2ccccc2)NC(=O)C=Cc2ccc(O)c(O)c2)cc1 (stereo not drawn) [Compound 2b]"
endpoint_unit = "%"
quantitative_readout = 44

[[record]]
compound = "CCCCC(=Cc1ccc(O)c(OC)c1)C(=O)NC(Cc1ccccc1)C(=O)C(=O)NCCc1ccc(OC)cc1 (stereo not drawn) [Compound 2h]"
endpoint_unit = "%"
quantitative_readout = 103

[[record]]
compound = "CCCCC(=Cc1ccc(OC)c(OC)c1)C(=O)NC(Cc1ccccc1)C(=O)C(=O)NCCc1ccc(OC)cc1 (stereo not drawn) [Compound 2i]"
endpoint_unit = "%"
quantitative_readout = 79.8

[[record]]
compound = "CCCCC(=Cc1ccc(O)c(O)c1)C(=O)NC(Cc1ccccc1)C(=O)C(=O)NCc1ccccc1 (stereo not drawn) [Compound 2f]"
endpoint_unit = "%"
quantitative_readout = 104


// provenance: paper PMC10675174
